assayProtocol: Single-dose pharmacokinetics in rats (plasma, UHPLC/MS/MS)
Type: in vivo, Sprague Dawley rats
appliedConditions: male, Sprague Dawley, rat, plasma, po, 10.5 mg/kg; read-out: Cmax
outcomeMeasure: Cmax

Entry C[C@@H]1O[C@@H](O[C@H]2[C@H](Oc3cc(O)c4c(c3)O[C@H](c3ccc(O)cc3)CC4=O)O[C@H](CO)[C@@H](O)[C@@H]2O)[C@H](O)[C@H](O)[C@H]1O — recorded Cmax = 36.1 ng/mL

====

assayProtocol: Single-dose pharmacokinetics in rats (plasma, UHPLC/MS/MS)
Format: in vivo, Sprague Dawley rats
appliedConditions: female, Sprague Dawley, rat, plasma, po, 42 mg/kg
outcomeMeasure: AUC(0-t) (ng·h/mL)
Dear colleague, please return just the value in ng·h/mL, with no unit written.

Entry C[C@@H]1O[C@@H](O[C@H]2[C@H](Oc3cc(O)c4c(c3)O[C@H](c3ccc(O)cc3)CC4=O)O[C@H](CO)[C@@H](O)[C@@H]2O)[C@H](O)[C@H](O)[C@H]1O [naringin, Naringin] — recorded AUC(0-t) = 13.3

====

Here, each record is paired with measured CavSS data.
assayProtocol: Multiple-dose pharmacokinetics in healthy humans
Type: in vivo, human
appliedConditions: naringin 160 mg multiple dose, human, male
Dear colleague, please return just the value in ng/mL, with no unit written.

                                  molsmiles  valueunit  value
0  C[C@@H]1O[C@@H](O[C@H]2[C@H](Oc3cc(O)c4c(c3)O[C@H](c3ccc(O)cc3)CC4=O)O[C@H](CO)[C@@H](O)[C@@H]2O)[C@H](O)[C@H](O)[C@H]1O      ng/mL   1.75

Now for a further molecule.
Entry O=C1C[C@@H](c2ccc(O)cc2)Oc2cc(O)cc(O)c21 — recorded CavSS = 47.2

====

assayProtocol: Single-dose pharmacokinetics in dogs (plasma, UHPLC/MS/MS)
Type: in vivo, Beagle dogs
appliedConditions: both sexes, Beagle, dog, plasma, po; dogs, nonclinical p.o. administration studies overall
outcomeMeasure: Tmax
Please answer in the form of a number followed by its unit of measurement.

Entry C[C@@H]1O[C@@H](O[C@H]2[C@H](Oc3cc(O)c4c(c3)O[C@H](c3ccc(O)cc3)CC4=O)O[C@H](CO)[C@@H](O)[C@@H]2O)[C@H](O)[C@H](O)[C@H]1O — recorded Tmax = 1.11 h

====

assayProtocol: Single-dose pharmacokinetics in rats (plasma, UHPLC/MS/MS)
Format: in vivo, Sprague Dawley rats
appliedConditions: both sexes, Sprague Dawley, rat, plasma, po, 21 mg/kg; read-out: MRT0-∞
outcomeMeasure: MRT inf (h)
Dear colleague, please return just the value in h, with no unit written.

Entry C[C@@H]1O[C@@H](O[C@H]2[C@H](Oc3cc(O)c4c(c3)O[C@H](c3ccc(O)cc3)CC4=O)O[C@H](CO)[C@@H](O)[C@@H]2O)[C@H](O)[C@H](O)[C@H]1O — recorded MRT inf = 1.42

====

assayProtocol: Single-dose pharmacokinetics in rats (plasma, UHPLC/MS/MS)
Format: in vivo, Sprague Dawley rats
appliedConditions: female, Sprague Dawley, rat, plasma, po, 42 mg/kg
outcomeMeasure: half-life (min)
Dear colleague, please return just the value in min, with no unit written.

Entry C[C@@H]1O[C@@H](O[C@H]2[C@H](Oc3cc(O)c4c(c3)O[C@H](c3ccc(O)cc3)CC4=O)O[C@H](CO)[C@@H](O)[C@@H]2O)[C@H](O)[C@H](O)[C@H]1O — recorded half-life = 33

====

assayProtocol: Single ascending dose and food-effect pharmacokinetics of naringin tablets in healthy humans
Assay type: in vivo, human
appliedConditions: both sexes, human, plasma, po, 320 mg, naringin 320 mg p.o. single dose, human; read-out: MRT0-∞
outcomeMeasure: MRT inf (h)
Dear colleague, please return just the value in h, with no unit written.

Entry C[C@@H]1O[C@@H](O[C@H]2[C@H](Oc3cc(O)c4c(c3)O[C@H](c3ccc(O)cc3)CC4=O)O[C@H](CO)[C@@H](O)[C@@H]2O)[C@H](O)[C@H](O)[C@H]1O — recorded MRT inf = 4.01

====

assayProtocol: Single-dose pharmacokinetics in rats (plasma, UHPLC/MS/MS)
Assay type: in vivo, Sprague Dawley rats
appliedConditions: both sexes, Sprague Dawley, rat, plasma, po, 10.5 mg/kg
Text: Sixty healthy adult Sprague Dawley rats (180-220 g, half male and female) were purchased from the Guangdong Medical Laboratory Animal Center (Guangzhou, Guangdong, China). Thirty Beagle dogs (10-14 kg, half male and female) were purchased from the […] […] The compounds were detected by multiple reaction monitoring in the negative ion electrospray mode. […] All pharmacokinetic and excretion parameters were expressed as mean ± standard deviation (SD). […]
outcomeMeasure: AUC(0-inf)
Please answer in the form of a number followed by its unit of measurement.

Entry C[C@@H]1O[C@@H](O[C@H]2[C@H](Oc3cc(O)c4c(c3)O[C@H](c3ccc(O)cc3)CC4=O)O[C@H](CO)[C@@H](O)[C@@H]2O)[C@H](O)[C@H](O)[C@H]1O — recorded AUC(0-inf) = 35.7 ng·h/mL

====

assayProtocol: Single-dose pharmacokinetics in dogs (plasma, UHPLC/MS/MS)
Assay type: in vivo, Beagle dogs
appliedConditions: both sexes, Beagle, dog, plasma, po, 3.1 mg/kg
Source text: Sixty healthy adult Sprague Dawley rats (180-220 g, half male and female) were purchased from the Guangdong Medical Laboratory Animal Center (Guangzhou, Guangdong, China). Thirty Beagle dogs (10-14 kg, half male and female) were purchased from the […] […] The compounds were detected by multiple reaction monitoring in the negative ion electrospray mode. […] All pharmacokinetic and excretion parameters were expressed as mean ± standard deviation (SD). […]
outcomeMeasure: AUC(0-inf) (ng·h/mL)
Dear colleague, please return just the value in ng·h/mL, with no unit written.

Entry C[C@@H]1O[C@@H](O[C@H]2[C@H](Oc3cc(O)c4c(c3)O[C@H](c3ccc(O)cc3)CC4=O)O[C@H](CO)[C@@H](O)[C@@H]2O)[C@H](O)[C@H](O)[C@H]1O [naringin, Naringin] — recorded AUC(0-inf) = 129

====

assayProtocol: Single-dose pharmacokinetics in dogs (plasma, UHPLC/MS/MS)
Assay type: in vivo, Beagle dogs
appliedConditions: both sexes, beagle, dog, plasma, iv, 12.4 mg/kg
outcomeMeasure: AUC(0-inf) (ng·h/mL)
Dear colleague, please return just the value in ng·h/mL, with no unit written.

Entry C[C@@H]1O[C@@H](O[C@H]2[C@H](Oc3cc(O)c4c(c3)O[C@H](c3ccc(O)cc3)CC4=O)O[C@H](CO)[C@@H](O)[C@@H]2O)[C@H](O)[C@H](O)[C@H]1O [naringin, Naringin] — recorded AUC(0-inf) = 2930

====

assayProtocol: Single ascending dose and food-effect pharmacokinetics of naringin tablets in healthy humans
Format: in vivo, human
appliedConditions: female, human, plasma, po, 40 mg, naringin 40 mg p.o. single dose
outcomeMeasure: AUC(0-t)
Please answer in the form of a number followed by its unit of measurement.

Entry C[C@@H]1O[C@@H](O[C@H]2[C@H](Oc3cc(O)c4c(c3)O[C@H](c3ccc(O)cc3)CC4=O)O[C@H](CO)[C@@H](O)[C@@H]2O)[C@H](O)[C@H](O)[C@H]1O — recorded AUC(0-t) = 4.64 ng·h/mL

====

assayProtocol: Single ascending dose and food-effect pharmacokinetics of naringin tablets in healthy humans
Type: in vivo, human
appliedConditions: male, human, plasma, po, 40 mg, naringin 40 mg p.o. single dose
outcomeMeasure: AUC(0-inf) (µg·h/mL)
Dear colleague, please return just the value in µg·h/mL, with no unit written.

Entry C[C@@H]1O[C@@H](O[C@H]2[C@H](Oc3cc(O)c4c(c3)O[C@H](c3ccc(O)cc3)CC4=O)O[C@H](CO)[C@@H](O)[C@@H]2O)[C@H](O)[C@H](O)[C@H]1O [naringin, Naringin] — recorded AUC(0-inf) = 0.0125

====

assayProtocol: Single-dose pharmacokinetics in dogs (plasma, UHPLC/MS/MS)
Format: in vivo, Beagle dogs
appliedConditions: both sexes, beagle, dog, plasma, iv, 12.4 mg/kg
outcomeMeasure: Cmax (ng/mL)
Dear colleague, please return just the value in ng/mL, with no unit written.

Entry C[C@@H]1O[C@@H](O[C@H]2[C@H](Oc3cc(O)c4c(c3)O[C@H](c3ccc(O)cc3)CC4=O)O[C@H](CO)[C@@H](O)[C@@H]2O)[C@H](O)[C@H](O)[C@H]1O — recorded Cmax = 5800

====

assayProtocol: Single-dose pharmacokinetics in dogs (plasma, UHPLC/MS/MS)
Assay type: in vivo, Beagle dogs
appliedConditions: male, Beagle, dog, plasma, po, 12.4 mg/kg
outcomeMeasure: Cmax (ng/mL)
Dear colleague, please return just the value in ng/mL, with no unit written.

Entry C[C@@H]1O[C@@H](O[C@H]2[C@H](Oc3cc(O)c4c(c3)O[C@H](c3ccc(O)cc3)CC4=O)O[C@H](CO)[C@@H](O)[C@@H]2O)[C@H](O)[C@H](O)[C@H]1O — recorded Cmax = 80.2
